assay: molar heat capacity at constant pressure; settings: 332.15 K; 101.33 kPa; Liquid; Large sample (1 g) DSC
outcome.measure: molar heat capacity at constant pressure (J/K/mol)
Respond with the bare value in J/K/mol.

INSERT INTO assay_data (compound, outcome_measure, u, measured_number) VALUES
  ('CC[n+]1cccc(C)c1.O=S(=O)([N-]S(=O)(=O)C(F)(F)F)C(F)(F)F', 'molar heat capacity at constant pressure', 'J/K/mol', 521);

Given the compound CCCCn1cc[n+](C)c1.O=S(=O)([O-])C(F)(F)F [1-butyl-3-methylimidazolium trifluoromethanesulfonate] , what is its reported molar heat capacity at constant pressure?
465

Given the compound CCC[n+]1cccc(C)c1.O=S(=O)([N-]S(=O)(=O)C(F)(F)F)C(F)(F)F , what is its reported molar heat capacity at constant pressure?
548

Given the compound CCCC[n+]1cccc(C)c1.O=S(=O)([N-]S(=O)(=O)C(F)(F)F)C(F)(F)F , what is its reported molar heat capacity at constant pressure?
581

Given the compound CCCCn1cc[n+](C)c1.N#CN=C=[N-] [1-butyl-3-methylimidazolium dicyanamide] , what is its reported molar heat capacity at constant pressure?
391

Given the compound CCCC[n+]1cccc(C)c1.O=S(=O)([O-])C(F)(F)F [1-butyl-3-methylpyridinium trifluoromethanesulfonate] , what is its reported molar heat capacity at constant pressure?
473

* * *

test: molar heat capacity at constant pressure; details: 296.15 K; 101.33 kPa; Liquid; Large sample (1 g) DSC
outcome.measure: molar heat capacity at constant pressure (J/K/mol)
Respond with the bare value in J/K/mol.

INSERT INTO assay_data (compound, measured_number) VALUES
  ('CCC[n+]1cccc(C)c1.O=S(=O)([N-]S(=O)(=O)C(F)(F)F)C(F)(F)F', 514),
  ('CC[n+]1cccc(C)c1.O=S(=O)([N-]S(=O)(=O)C(F)(F)F)C(F)(F)F', 489);

Given the compound CCCCn1cc[n+](C)c1.N#CN=C=[N-] [1-butyl-3-methylimidazolium dicyanamide] , what is its reported molar heat capacity at constant pressure?
375

Given the compound CCCC[n+]1cccc(C)c1.O=S(=O)([N-]S(=O)(=O)C(F)(F)F)C(F)(F)F , what is its reported molar heat capacity at constant pressure?
546

* * *

Catalogue of compounds with associated molar heat capacity at constant pressure
assay: molar heat capacity at constant pressure; conditions: 304.15 K; 101.33 kPa; Liquid; Large sample (1 g) DSC
Respond with the bare value in J/K/mol.

INSERT INTO assay_data (compound, measured_number) VALUES
  ('CCC[n+]1cccc(C)c1.O=S(=O)([N-]S(=O)(=O)C(F)(F)F)C(F)(F)F', 523);

Given the compound CCCC[n+]1cccc(C)c1.O=S(=O)([N-]S(=O)(=O)C(F)(F)F)C(F)(F)F , what is its reported molar heat capacity at constant pressure?
555

Given the compound CC[n+]1cccc(C)c1.O=S(=O)([N-]S(=O)(=O)C(F)(F)F)C(F)(F)F , what is its reported molar heat capacity at constant pressure?
498

Given the compound CCCCn1cc[n+](C)c1.N#CN=C=[N-] [1-butyl-3-methylimidazolium dicyanamide] , what is its reported molar heat capacity at constant pressure?
379

* * *

Catalogue of compounds with associated molar heat capacity at constant pressure
experiment: molar heat capacity at constant pressure; settings: 312.15 K; 101.33 kPa; Liquid; Large sample (1 g) DSC
± gives the expanded uncertainty stated by the source.
Express your answer as a number followed by its unit.

The following compounds have reported results that may help.
INSERT INTO assay_data (compound, result) VALUES
  ('CCC[n+]1cccc(C)c1.O=S(=O)([N-]S(=O)(=O)C(F)(F)F)C(F)(F)F', '531 ± 54 J/K/mol'),
  ('CCCCn1cc[n+](C)c1.N#CN=C=[N-] [1-butyl-3-methylimidazolium dicyanamide]', '383 ± 39 J/K/mol'),
  ('CCCC[n+]1cccc(C)c1.O=S(=O)([N-]S(=O)(=O)C(F)(F)F)C(F)(F)F', '563 ± 57 J/K/mol');

Given the compound CC[n+]1cccc(C)c1.O=S(=O)([N-]S(=O)(=O)C(F)(F)F)C(F)(F)F , what is its reported molar heat capacity at constant pressure?
505 ± 51 J/K/mol

* * *

assay: molar heat capacity at constant pressure; conditions: 308.15 K; 101.33 kPa; Liquid; Large sample (1 g) DSC
outcome.measure: molar heat capacity at constant pressure (J/K/mol)
Respond with the bare value in J/K/mol.

The following compounds have reported results that may help.
INSERT INTO measurements (compound, u, measured_number) VALUES
  ('CCCC[n+]1cccc(C)c1.O=S(=O)([N-]S(=O)(=O)C(F)(F)F)C(F)(F)F', 'J/K/mol', 559),
  ('CC[n+]1cccc(C)c1.O=S(=O)([N-]S(=O)(=O)C(F)(F)F)C(F)(F)F', 'J/K/mol', 502);

Given the compound CCCCn1cc[n+](C)c1.N#CN=C=[N-] [1-butyl-3-methylimidazolium dicyanamide] , what is its reported molar heat capacity at constant pressure?
381

Given the compound CCC[n+]1cccc(C)c1.O=S(=O)([N-]S(=O)(=O)C(F)(F)F)C(F)(F)F , what is its reported molar heat capacity at constant pressure?
527

* * *

test: molar heat capacity at constant pressure; conditions: 313.15 K; 101.33 kPa; Liquid; Large sample (1 g) DSC
Catalogue of compounds with associated molar heat capacity at constant pressure
Respond with the bare value in J/K/mol.

The following compounds have reported results that may help.
INSERT INTO measurements (compound, u, measured_number) VALUES
  ('CCC[n+]1cccc(C)c1.O=S(=O)([N-]S(=O)(=O)C(F)(F)F)C(F)(F)F', 'J/K/mol', 532),
  ('CCCCn1cc[n+](C)c1.N#CN=C=[N-] [1-butyl-3-methylimidazolium dicyanamide]', 'J/K/mol', 383),
  ('CC[n+]1cccc(C)c1.O=S(=O)([N-]S(=O)(=O)C(F)(F)F)C(F)(F)F', 'J/K/mol', 506);

Please find the next compound below.
Given the compound CCCC[n+]1cccc(C)c1.O=S(=O)([N-]S(=O)(=O)C(F)(F)F)C(F)(F)F , what is its reported molar heat capacity at constant pressure?
564

* * *

experiment: molar heat capacity at constant pressure; conditions: 298.15 K; 101.33 kPa; Liquid; Large sample (1 g) DSC
± gives the expanded uncertainty stated by the source.
outcome.measure: molar heat capacity at constant pressure

INSERT INTO measurements (molecule, result) VALUES
  ('CCC[n+]1cccc(C)c1.O=S(=O)([N-]S(=O)(=O)C(F)(F)F)C(F)(F)F', '517 ± 52 J/K/mol'),
  ('CCCCn1cc[n+](C)c1.N#CN=C=[N-] [1-butyl-3-methylimidazolium dicyanamide]', '376 ± 38 J/K/mol'),
  ('CCCC[n+]1cccc(C)c1.O=S(=O)([N-]S(=O)(=O)C(F)(F)F)C(F)(F)F', '548 ± 55 J/K/mol');

Given the molecule CC[n+]1cccc(C)c1.O=S(=O)([N-]S(=O)(=O)C(F)(F)F)C(F)(F)F , what is its reported molar heat capacity at constant pressure?
491 ± 50 J/K/mol

* * *

experiment: molar heat capacity at constant pressure; details: 328.15 K; 101.33 kPa; Liquid; Large sample (1 g) DSC
Catalogue of molecules with associated molar heat capacity at constant pressure
Respond with the bare value in J/K/mol.

INSERT INTO measurements (molecule, outcome_measure, measured_number) VALUES
  ('CCC[n+]1cccc(C)c1.O=S(=O)([N-]S(=O)(=O)C(F)(F)F)C(F)(F)F', 'molar heat capacity at constant pressure', 544);

Given the molecule CCCC[n+]1cccc(C)c1.O=S(=O)([N-]S(=O)(=O)C(F)(F)F)C(F)(F)F , what is its reported molar heat capacity at constant pressure?
577

Given the molecule CCCCn1cc[n+](C)c1.O=S(=O)([O-])C(F)(F)F [1-butyl-3-methylimidazolium trifluoromethanesulfonate] , what is its reported molar heat capacity at constant pressure?
461

Given the molecule CCCC[n+]1cccc(C)c1.O=S(=O)([O-])C(F)(F)F [1-butyl-3-methylpyridinium trifluoromethanesulfonate] , what is its reported molar heat capacity at constant pressure?
468

Given the molecule CC[n+]1cccc(C)c1.O=S(=O)([N-]S(=O)(=O)C(F)(F)F)C(F)(F)F , what is its reported molar heat capacity at constant pressure?
518

Given the molecule CCCCn1cc[n+](C)c1.N#CN=C=[N-] [1-butyl-3-methylimidazolium dicyanamide] , what is its reported molar heat capacity at constant pressure?
389

* * *

Catalogue of molecules with associated molar heat capacity at constant pressure
experiment: molar heat capacity at constant pressure; settings: 326.15 K; 101.33 kPa; Liquid; Large sample (1 g) DSC
Respond with the bare value in J/K/mol.

The following molecules have reported results that may help.
INSERT INTO results (molecule, measured_number) VALUES
  ('CCCC[n+]1cccc(C)c1.O=S(=O)([N-]S(=O)(=O)C(F)(F)F)C(F)(F)F', 575),
  ('CCCCn1cc[n+](C)c1.O=S(=O)([O-])C(F)(F)F [1-butyl-3-methylimidazolium trifluoromethanesulfonate]', 459),
  ('CCCC[n+]1cccc(C)c1.O=S(=O)([O-])C(F)(F)F [1-butyl-3-methylpyridinium trifluoromethanesulfonate]', 465);

Given the molecule CCC[n+]1cccc(C)c1.O=S(=O)([N-]S(=O)(=O)C(F)(F)F)C(F)(F)F , what is its reported molar heat capacity at constant pressure?
542

Given the molecule CCCCn1cc[n+](C)c1.N#CN=C=[N-] [1-butyl-3-methylimidazolium dicyanamide] , what is its reported molar heat capacity at constant pressure?
388

Given the molecule CC[n+]1cccc(C)c1.O=S(=O)([N-]S(=O)(=O)C(F)(F)F)C(F)(F)F , what is its reported molar heat capacity at constant pressure?
516
